- tested on: hURAT1 (Homo sapiens)
- Sequence (Q96S37 whole entry): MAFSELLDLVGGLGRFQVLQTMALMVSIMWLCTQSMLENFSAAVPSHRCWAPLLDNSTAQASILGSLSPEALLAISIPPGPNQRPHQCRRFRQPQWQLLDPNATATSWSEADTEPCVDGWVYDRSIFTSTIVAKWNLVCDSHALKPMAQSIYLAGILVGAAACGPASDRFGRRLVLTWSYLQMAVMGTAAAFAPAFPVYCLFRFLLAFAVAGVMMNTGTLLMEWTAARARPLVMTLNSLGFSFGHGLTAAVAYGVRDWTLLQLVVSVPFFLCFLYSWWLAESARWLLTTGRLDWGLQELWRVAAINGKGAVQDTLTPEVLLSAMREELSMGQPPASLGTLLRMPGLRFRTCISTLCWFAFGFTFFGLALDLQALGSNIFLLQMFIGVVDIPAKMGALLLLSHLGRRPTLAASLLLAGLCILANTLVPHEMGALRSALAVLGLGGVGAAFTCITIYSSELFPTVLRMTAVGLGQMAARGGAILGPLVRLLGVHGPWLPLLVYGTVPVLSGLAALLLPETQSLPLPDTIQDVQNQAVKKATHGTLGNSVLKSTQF
- assay info: Inhibitory activity against URAT1: 14C-labelled uric acid uptake in HEK-293t cells stably expressing hURAT1
- Type: cell-based
- recorded conditions: HEK-293t/hURAT1 cells, 14C uric acid uptake, 5 minutes at room temperature; Ref Cpd 2, 83, Ref Cpd 3 and 129 are averages of head-to-head tests; read-out: IC50 (nM) of hURAT1 inhibitory activity
- Procedure: […] Cell Culture: • 1. […] The number of cells was adjusted to 4×10^5 cells/mL. • 4. the above counted cells were inoculated into the 96-well plate at 100 μL/well. • 5. […] The uric acid absorption experiment labeled with isotope C14: • 1. […] The well-agitated plate was sealed, and the data was read on MicroBeta Trilux. • 9. […] The IC50 values of compounds can be calculated by the inhibition rate at different concentrations. […]
Below, each of the compounds is paired with its reported IC50 value.
property measured: IC50

>>> observed_value("CCC(CC)(Sc1ccnc2ccc(-c3ccncc3)cc12)C(=O)O")
"133 nM"
>>> observed_value("CC(C)(Sc1ccnc2ccc(-c3ccccc3C(F)(F)F)cc12)C(=O)O")
"325 nM"
>>> observed_value("CCOc1cccc(-c2ccc3nccc(SC(CC)(CC)C(=O)O)c3c2)c1")
"109 nM"
>>> observed_value("CC(C)(Sc1ccnc2ccc(-c3cccc(OC(F)F)c3)cc12)C(=O)O")
"238 nM"
>>> observed_value("CC(C)(Sc1ccnc2ccc(-c3ccnc(F)c3)cc12)C(=O)O")
"272 nM"
>>> observed_value("CC(C)(Sc1ccnc2ccc(-c3cccc(F)c3)cc12)C(=O)O")
"351 nM"
>>> observed_value("CS(=O)(=O)NC(=O)C1(Sc2ccnc3ccc(Br)cc23)CCC1")
"336 nM"
>>> observed_value("CC(C)(Sc1ccncc1-c1ccc(C#N)c2ccccc12)C(=O)O [Ref cpd 1 (RDEA3170), reference compound]")
"154 nM"
>>> observed_value("CC(C)(Sc1ccnc2ccc(-c3ccncc3)cc12)C(=O)O")
"127 nM"

# credit: patent US10450274B2
